test: qHTS assay for cell viability of the p53RE-bla HCT-116 cell line (AID 743292); settings: p53RE-bla HCT-116 viability, ATP luminescence, 16 h; series mostly up to 95 µM; also: nearly all actives have a fitted effect of over 55% in size
Results filed as inconclusive are left out. Active and inactive are the calls of the source. Calls follow the shape of the dose curve; as a rule, active = well fitted cell-killing curve with a large enough effect; inconclusive = small, poorly fitted or top-dose-only effect, or effect the other way; inactive = flat fitted curve, though single readings scatter.
endpoint: outcome

1. CC(=O)[C@@]1(O)CC[C@H]2[C@@H]3CCC4=CC(=O)CC[C@]4(C)[C@H]3CC[C@@]21C
inactive
2. O=c1[nH]c(=O)n([C@H]2C[C@H](O)[C@@H](CO)O2)cc1Br
inactive
3. Cc1ccc(S(=O)(=O)NC(=O)NN2CCCCCC2)cc1
inactive
4. CC(C)(Oc1ccc(CCNC(=O)c2ccc(Cl)cc2)cc1)C(=O)O
inactive
5. CCCCNC(=O)NS(=O)(=O)c1ccc(C)cc1
inactive
6. COC(=O)[C@H]1[C@H]2C[C@@H]3c4[nH]c5cc(OC)ccc5c4CCN3C[C@H]2C[C@@H](OC(=O)c2cc(OC)c(OC)c(OC)c2)[C@@H]1OC
inactive
7. CC(=O)Nc1nnc(S(N)(=O)=O)s1
inactive
8. Nc1ncn([C@@H]2O[C@H](CO)[C@@H](O)[C@H]2O)c(=O)n1
inactive
9. NC(=O)N1c2ccccc2C=Cc2ccccc21
inactive
10. Nc1nc(N)c2nc(-c3ccccc3)c(N)nc2n1
inactive
11. NC(=Nc1ccccc1)Nc1ccccc1
inactive

* * *

assay: qHTS of pediatric cancer cell lines to identify multiple opportunities for drug repurposing: Primary screen for TC32 cells (AID 1347089); conditions: TC32 Ewing sarcoma viability, CellTiter-Glo luminescence, 48 h; series mostly up to 45.8 µM; also: nearly all actives have a fitted effect of over 60% in size
Records with an inconclusive call do not appear. Active and inactive are the calls of the source. The call rests on the fitted dose curve; in most records, active means well fitted cell-killing curve with a large enough effect; inconclusive means small, poorly fitted or top-dose-only effect; inactive means flat fitted curve, though single readings scatter.
Possible outcomes: active, inactive

1. Fc1ccc(C(c2ccc(F)cc2)N2CCN(C/C=C/c3ccccc3)CC2)cc1
inactive
2. COc1ccc2c(c1OC)C(=O)O[C@@H]2[C@H]1c2c(cc3c(c2OC)OCO3)CCN1C
inactive
3. CC(C)(C)c1ccc(C(=O)CCCN2CCC(OC(c3ccccc3)c3ccccc3)CC2)cc1
inactive
4. NC1=NCC2c3ccccc3Cc3ccccc3N12 (configuration not stated)
inactive
5. CCCCCCCC/C=C\CCCCCCCC(=O)NCc1ccc(O)c(OC)c1
inactive
6. CCCCNC(=O)NS(=O)(=O)c1ccc(C)cc1
inactive
7. c1cnc(N2CCN(Cc3ccc4c(c3)OCO4)CC2)nc1
inactive
8. COCCCC/C(=N\OCCN)c1ccc(C(F)(F)F)cc1
inactive
9. CN(C)C(=O)Oc1ccc[n+](C)c1
inactive
10. CCN1CCc2nc(N)oc2CC1
inactive
11. Brc1c(NC2=NCCN2)ccc2nccnc12
inactive
12. CNCCCN1c2ccccc2CCc2ccccc21
inactive
13. Cc1scc2c1N(C(=O)CN1CCN(C)CC1)c1ccccc1NC2=O
inactive
14. Cc1ccc(/C(=C\CN2CCCC2)c2ccccn2)cc1
inactive
15. CC(=O)OCC1=C(C(=O)O)N2C(=O)[C@@H](NC(=O)Cc3cccs3)[C@H]2SC1
inactive
16. CC(=O)[C@@]1(O)CC[C@H]2[C@@H]3CCC4=CC(=O)CC[C@]4(C)[C@H]3CC[C@@]21C
inactive
17. C[N+](C)(C)CCCCCCCCCC[N+](C)(C)C
inactive
18. C#CCN(C)CCCOc1ccc(Cl)cc1Cl
inactive
19. Cc1cccc(C)c1NC(=O)C(C)N (configuration not stated)
inactive
20. CC(C)(Oc1ccc(CCNC(=O)c2ccc(Cl)cc2)cc1)C(=O)O
inactive
21. NC(N)=NC(=O)Cc1c(Cl)cccc1Cl
inactive
22. CN1CCN(C2=Nc3ccccc3Oc3ccc(Cl)cc32)CC1
inactive
23. O=C(CCNNC(=O)c1ccncc1)NCc1ccccc1
inactive
24. CN(C)CC[C@@H](c1ccc(Br)cc1)c1ccccn1
inactive
25. CCCOc1ccccc1-c1nc2n[nH]nc2c(=O)[nH]1
inactive
26. CN1C[C@H](C(=O)N[C@]2(C)O[C@@]3(O)[C@@H]4CCCN4C(=O)[C@H](Cc4ccccc4)N3C2=O)C[C@@H]2c3cccc4[nH]cc(c34)C[C@H]21
inactive
27. Nc1ncn([C@@H]2O[C@H](CO)[C@@H](O)[C@H]2O)c(=O)n1
active
28. C[C@]12CCC(=O)C=C1CC[C@@H]1[C@@H]2CC[C@@]2(C)[C@H]1CC[C@]2(O)C(=O)CO
inactive
29. CNC1(C)C2CCC(C2)C1(C)C (configuration not stated)
inactive
30. O=C1CC2(CCCC2)CC(=O)N1CCCCN1CCN(c2ncccn2)CC1
inactive
31. CCN(CC)CCOCCOC(=O)C1(c2ccccc2)CCCC1
inactive
32. CCNC(=O)N1CCN(CCCC(c2ccc(F)cc2)c2ccc(F)cc2)CC1
inactive
33. CO[C@@]1(NC(=O)CSCC#N)C(=O)N2C(C(=O)O)=C(CSc3nnnn3C)CS[C@@H]21
inactive
34. CCn1cc(C(=O)O)c(=O)c2cc3c(cc21)OCO3
inactive
35. C[C@@H](O)[C@H]1C(=O)N2C(C(=O)O)=C(SCCN=CN)C[C@H]12
inactive
36. O=C(CCCN1CCC(O)(c2cccc(C(F)(F)F)c2)CC1)c1ccc(F)cc1
inactive
37. CC(=O)Nc1nnc(S(N)(=O)=O)s1
inactive
38. FC(F)(F)c1ccccc1-n1ccnc1
inactive
39. COc1cc(Cc2cnc(N)nc2N)cc(OC)c1OC
inactive
40. CC(=O)Oc1cc(C(C)C)c(OCCN(C)C)cc1C
inactive
41. CCCCNc1c(C(=O)OCC)c(C)nc2c1cnn2CC
inactive
42. C[n+]1cc2c3c(ccc2c2ccc4cc5c(cc4c21)OCO5)OCO3
active
43. CC[N+](C)(C)c1cccc(O)c1
inactive
44. CN=C(NC#N)NCCSCc1nc[nH]c1C
inactive
45. Cc1nc2ccccn2c(=O)c1CCN1CCC(C(=O)c2ccc(F)cc2)CC1
inactive
46. CCCCCN(CCCCC)C(=O)C(CCC(=O)O)NC(=O)c1ccc(Cl)c(Cl)c1 (configuration not stated)
inactive
47. CCCC(C(=O)OCCN(CC)CC)(c1ccccc1)c1ccccc1
inactive
